Listed molecules paired with reported melting point

Take a look at these entries with their results.
Molecule: COc1ccc(C)cc1NC(=O)Nc1ccc(N2CCN(C(=O)Nc3ccc(C)cc3Cl)CC2)nc1 [Example 147]
Val: 214 to 215 °C

Molecule: COc1ccc(C)cc1NC(=O)Nc1ccc(N2CCN(C(=O)Nc3ccccc3C(F)(F)F)CC2)nc1 [Example 137]
Val: 213 to 214 °C

Molecule: COc1ccc(C)cc1NC(=O)Nc1ccc(N2CCN(C(=O)Nc3ccccc3C)CC2)cc1 [Example 54]
Val: 209 to 211 °C

Molecule: COc1ccc(C)cc1NC(=O)Nc1ccc(N2CCN(C(=O)Nc3cc(OCCO)ccc3Cl)CC2)nc1 [Example 238]
Val: 132 to 134 °C

The molecule listed as COc1ccc(C)cc1NC(=O)Nc1ccc(N2CCN(C(=O)Nc3c(C)cc(Cl)cc3C)CC2)cc1 [Example 174] shows melting point equal to 238 to 240 °C

Entry CCOc1ccccc1NC(=O)Nc1ccc(N2CCN(C(=O)Nc3c(F)cccc3C(F)(F)F)CC2)cc1 [Example 117] , melting point reported as 139 to 141 °C

Per the records, this molecule ( CCOc1ccccc1NC(=O)Nc1ccc(N2CCN(C(=O)OC(C)(C)C)CC2)cc1 [Example 4] ) has melting point equal to 84 °C

Documented melting point of CCc1csc(NC(=O)Nc2ccc(N3CCN(C(=O)Nc4ccc(OCCO)cc4C(F)(F)F)CC3)cc2)n1 [Example 246] : 124 to 125 °C

----------
Overview of reported melting point across a group of molecules:

GET /value?item= CC(C)c1ccc(NC(=O)Nc2ccc(N3CCN(C(=O)OC(C)(C)C)CC3)cc2)cc1 [Example 22] &field=melting point returns 210 °C

Record summary for COc1ccc(C)cc1NC(=O)Nc1ccc(N2CCN(C(=O)Nc3ccc(OCCO)cc3C(F)(F)F)CC2)c(C)c1 [Example 239] : reported melting point = 225 to 228 °C

COc1ccc(C)cc1NC(=O)Nc1ccc(N2CCN(C(=O)OC(C)(C)C)CC2)cc1C [Example 194] has a reported melting point of 169 to 171 °C

# melting point of COc1ccc(C)cc1NC(=O)Nc1ccc(N2CCN(C(=O)Nc3ccc(NC(C)=O)cc3Cl)CC2)cc1 [Example 169] = 155 to 157 °C

Lab note: COc1ccc(C)cc1NC(=O)Nc1ccc(N2CCN(C(=O)Nc3c(C)cccc3OC)CC2)nc1 [Example 186] gave melting point of 198 to 200 °C

// sample Cc1nc(NC(=O)Nc2ccc(N3CCN(C(=O)Nc4cc(OCCO)ccc4Cl)CC3)nc2)sc1C [Example 237] , its melting point was 128 to 129 °C

So for CCOc1ccc(C)cc1NC(=O)Nc1ccc(N2CCN(C(=O)Nc3ncccc3C)CC2)nc1 [Example 307] , the logged melting point turned out to be 198 to 200 °C

Query COc1ccc(F)cc1NC(=O)Nc1ccc(N2CCN(C(=O)Nc3ncccc3C)CC2)cc1 [Example 296] yields melting point of 206 to 208 °C

Consider CCOc1ccc(F)cc1NC(=O)Nc1ccc(N2CCN(C(=O)Nc3ccc(C)cc3Cl)CC2)cc1 [Example 122] . Its measured melting point is 155 to 157 °C

# molecule O=C(Nc1ccc(N2CCN(C(=O)Nc3ccc(OCCO)cc3C(F)(F)F)CC2)cc1)Nc1ccc2c(c1)CCO2 [Example 243] ; its melting point = 212 to 214 °C

The molecule listed as CCOc1ccc(C)cc1NC(=O)Nc1ccc(N2CCN(C(=O)Nc3ccc(OC)cc3C)CC2)cc1 [Example 111] shows melting point equal to 202 to 204 °C

----------
Target: mouse DGAT1 (Mus musculus, UniProt Q9Z2A7)
Construct: made in house; host or cells: insect cells (High Five, Sf9, Sf21, etc.), baculovirus expression system (Invitrogen)
Sequence (Q9Z2A7 1-498): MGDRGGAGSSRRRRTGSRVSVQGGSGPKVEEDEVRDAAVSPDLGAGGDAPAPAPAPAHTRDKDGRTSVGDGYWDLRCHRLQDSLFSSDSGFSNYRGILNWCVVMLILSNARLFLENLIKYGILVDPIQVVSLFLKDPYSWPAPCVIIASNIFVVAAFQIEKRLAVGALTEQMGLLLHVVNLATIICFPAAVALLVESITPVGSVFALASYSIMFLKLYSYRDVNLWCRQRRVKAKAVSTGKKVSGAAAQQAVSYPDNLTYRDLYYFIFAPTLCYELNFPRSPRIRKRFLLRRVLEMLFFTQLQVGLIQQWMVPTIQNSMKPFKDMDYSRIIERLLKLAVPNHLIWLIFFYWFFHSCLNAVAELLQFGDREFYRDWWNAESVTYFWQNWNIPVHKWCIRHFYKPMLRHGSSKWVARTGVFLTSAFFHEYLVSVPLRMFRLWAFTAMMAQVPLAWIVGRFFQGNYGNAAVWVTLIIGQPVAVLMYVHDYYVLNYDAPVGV
Assay: DGAT1 inhibitory effect test (microsome fraction, [14C]-oleoyl-CoA, triglyceride radioactivity by TLC)
Assay type: biochemical
Conditions: 0.5 h; concentration of the test compound 0.1 μg/ml; mouse DGAT1 microsomes, 23° C., 30 minutes; read-out: Inhibitory ratio
Description: The cDNA which encodes mouse DGAT1 was cloned from a mouse cDNA library by polymerase chain reaction (hereinafter referred to as “PCR”) and introduced into an insect cell virus vector (baculovirus expression system, Invitrogen). […]
Measure: inhibition at 0.1 µg/mL

Compound: CCOc1ccccc1NC(=O)Nc1ccc(N2CCN(C(=O)Nc3ccc(OC)cc3C)CC2)cc1 [Example 110]
Val: ≥ 50%

Compound: COc1ccccc1NC(=O)Nc1ccc(N2CCN(C(=O)Nc3ccc(OCCO)cc3C(F)(F)F)CC2)cc1 [Example 217]
Val: ≥ 50%

Compound: COc1ccccc1NC(=O)Nc1ccc(N2CCN(C(=O)Nc3cc(OCCO)ccc3Cl)CC2)nc1 [Example 235]
Val: ≥ 50%

Compound: COc1cccc(NC(=O)Nc2ccc(N3CCN(C(=O)Nc4ncccc4C)CC3)cc2)c1 [Example 303]
Val: ≥ 50%

Compound: CCOc1ccc(Cl)cc1NC(=O)Nc1ccc(N2CCN(C(=O)Nc3ccc(OC)cc3C)CC2)cc1 [Example 106]
Val: ≥ 50%

COc1ccc(F)cc1NC(=O)Nc1ccc(N2CCN(C(=O)Nc3ccc(OCC(O)CO)cc3C(F)(F)F)CC2)nc1 (stereo not shown) [Example 279] has a reported inhibition at 0.1 µg/mL of ≥ 50%

The reported inhibition at 0.1 µg/mL of the compound COc1cc(NC(=O)Nc2ccc3c(c2)CCN(C(=O)Nc2ccc(OCC(O)CO)cc2Cl)C3)cc(OC)c1 (stereo not shown) [Example 285] was ≥ 50%

----------
As shown below, each of these compounds has a reported melting point value.

Compound: CCOc1ccc(NC(=O)Nc2ccc(N3CCN(C(=O)Nc4c(C)cccc4Cl)CC3)cc2)cc1
Val: 229 to 230 °C

Compound: CCOc1ccc(C)cc1NC(=O)Nc1ccc(N2CCN(C(=O)Nc3c(C)cccc3OC)CC2)cc1
Val: 142 to 144 °C

Compound: COc1ccc(C)cc1NC(=O)Nc1ccc(N2CCN(C(=O)Nc3ccc(OCCO)cc3C)CC2)nc1
Val: 189 to 190 °C

Compound: COc1ccc(F)cc1NC(=O)Nc1ccc(N2CCN(C(=O)OC(C)(C)C)CC2)nc1
Val: 200 to 201 °C

Record `CCOc1ccccc1NC(=O)Nc1ccc(N2CCN(C(=O)Nc3c(C)cccc3C)CC2)cc1` , field melting point: 204 to 205 °C

compound `COc1ccc(C)cc1NC(=O)Nc1ccc(N2CCN(C(=O)Nc3c(C)cccc3C)CC2)nc1` , melting point observed: 221 to 223 °C

`O=C(Nc1ccc(N2CCN(C(=O)Nc3ccc(OCCO)cc3Cl)CC2)cc1)Nc1ccccc1F` yielded melting point of 213 to 217 °C

Data point: `COc1ccc(C)cc1NC(=O)Nc1ccc(N2CCN(C(=O)Nc3c(C)cccc3CO)CC2)cc1` ; melting point = 192 to 194 °C

Query `COc1ccc(C)cc1NC(=O)Nc1ccc(N2CCN(C(=O)Nc3c(C)cc(C)cc3C)CC2)cc1` yields melting point of 215 to 217 °C

Reported melting point ( `COc1ccc(C)cc1NC(=O)Nc1ccc(N2CCN(c3ncccn3)CC2)cc1` ) = 220 to 221 °C

Field melting point (entry `COc1ccc(C)cc1NC(=O)Nc1ccc(N2CCN(C(=O)Nc3ccc(NC(C)=O)cc3C(F)(F)F)CC2)nc1` ) reads 175 to 177 °C

Form: compound = `COc1ccc(Cl)cc1NC(=O)Nc1ccc(N2CCN(C(=O)Nc3c(Cl)cccc3Cl)CC2)cc1` ; melting point = 189 to 190 °C

melting point recorded for this compound, `CCCc1ccccc1NC(=O)Nc1ccc(N2CCN(C(=O)Nc3c(C)cccc3Cl)CC2)cc1` , is 216 to 217 °C

# compound `COc1cc(NC(=O)Nc2ccc(N3CCN(C(=O)Nc4ncc(F)cc4F)CC3)cc2)cc(OC)c1` ; its melting point = 204 to 205 °C

Value of measured melting point for the entry `CCOc1ccc(Cl)cc1NC(=O)Nc1ccc(N2CCN(C(=O)Nc3c(F)cccc3C(F)(F)F)CC2)cc1` : 146 to 148 °C

Measured melting point, COc1ccc(C)cc1NC(=O)Nc1ccc(C2=CCN(C(=O)Nc3ccc(OCC(O)CO)cc3Cl)CC2)cc1 (stereo not shown) : 125 to 128 °C

Noted for O=C(Nc1ccc(C2CCN(C(=O)Nc3ccc(OCC(O)CO)cc3Cl)CC2)cc1)Nc1ccccc1F (stereo not shown) : its melting point reads 170 to 175 °C

Input `COc1ccc(C)cc1NC(=O)Nc1ccc(N2CCN(C(=O)Nc3ccc(F)cc3C)CC2)cc1` . Output melting point: > 270 °C (dec.)

// melting point value for COc1cc(NC(=O)Nc2ccc(C3=CCN(C(=O)Nc4ccc(OCC(O)CO)cc4Cl)CC3)cc2)cc(OC)c1 (stereo not shown) : 108 to 111 °C

Numbers sourced from patent US20070249620A1.
